molecules and their reported % CD34+/CD38−
System: hCD34+ hematopoietic progenitors
Experiment: In vitro toxicity of natural estrogens for hematopoietic progenitors (hCD34+ culture, FACS subsets)
Assay type: cell-based, human
Details: 1 μM, four days culture
endpoint_label: % CD34+/CD38−

[[record]]
molecule = "C[C@]12CC[C@@H]3c4ccc(O)cc4CC[C@H]3[C@@H]1C[C@@H](O)[C@@H]2O"
endpoint_label = "% CD34+/CD38−"
result = "14.96 ± 0.57%"

[[record]]
molecule = "C[C@]12CC[C@@H]3c4ccc(O)cc4CC[C@H]3[C@@H]1CCC2=O [E1, estrone]"
endpoint_label = "% CD34+/CD38−"
result = "10.11 ± 2.31%"

[[record]]
molecule = "C[C@]12CC[C@@H]3c4ccc(O)cc4CC[C@H]3[C@@H]1CC[C@@H]2O [E2, 17β-estradiol]"
endpoint_label = "% CD34+/CD38−"
result = "13.43 ± 0.60%"

[[record]]
molecule = "C[C@]12CC[C@@H]3c4ccc(O)cc4CC[C@H]3[C@@H]1[C@@H](O)[C@@H](O)[C@@H]2O"
endpoint_label = "% CD34+/CD38−"
result = "12.08 ± 1.22%"


---

compounds and their reported % CD34+/CD38−
Tested on: hCD34+ hematopoietic progenitors
Experiment: In vitro toxicity of natural estrogens for hematopoietic progenitors (hCD34+ culture, FACS subsets)
Type: cell-based, human
Details: 10 μM, four days culture
Description: FIG. 9 relates the effect of different concentration of E1, E2, E3 and E4 in human hematopoietic progenitors. […] FIG. 9B indicates the total number of primitive hematopoietic progenitors (CD34^+/CD38^−) present in the culture, extrapolated from number of cells and the frequency of this population analyzed by FACS. […]
endpoint_label: % CD34+/CD38− (%)

[[record]]
compound = "C[C@]12CC[C@@H]3c4ccc(O)cc4CC[C@H]3[C@@H]1CC[C@@H]2O [E2, 17β-estradiol]"
target = "hCD34+ hematopoietic progenitors"
endpoint_label = "% CD34+/CD38−"
unit_abbreviation = "%"
numeric_value = 17.52

[[record]]
compound = "C[C@]12CC[C@@H]3c4ccc(O)cc4CC[C@H]3[C@@H]1C[C@@H](O)[C@@H]2O [E3, estriol]"
target = "hCD34+ hematopoietic progenitors"
endpoint_label = "% CD34+/CD38−"
unit_abbreviation = "%"
numeric_value = 15.89

[[record]]
compound = "C[C@]12CC[C@@H]3c4ccc(O)cc4CC[C@H]3[C@@H]1[C@@H](O)[C@@H](O)[C@@H]2O [E4, estetrol]"
target = "hCD34+ hematopoietic progenitors"
endpoint_label = "% CD34+/CD38−"
unit_abbreviation = "%"
numeric_value = 13.62

[[record]]
compound = "C[C@]12CC[C@@H]3c4ccc(O)cc4CC[C@H]3[C@@H]1CCC2=O [E1, estrone]"
target = "hCD34+ hematopoietic progenitors"
endpoint_label = "% CD34+/CD38−"
unit_abbreviation = "%"
numeric_value = 10.54


---

Test system: hCD34+ hematopoietic progenitors
Assay: In vitro toxicity of natural estrogens for hematopoietic progenitors (hCD34+ culture, FACS subsets)
Assay type: cell-based, human
Details: 10 nM to 500 μM, in vitro
endpoint_label: toxicity for hematopoietic progenitor subpopulations

[[record]]
molecule = "C[C@]12CC[C@@H]3c4ccc(O)cc4CC[C@H]3[C@@H]1C[C@@H](O)[C@@H]2O"
result = "more toxic"

[[record]]
molecule = "C[C@]12CC[C@@H]3c4ccc(O)cc4CC[C@H]3[C@@H]1CCC2=O [E1, estrone]"
result = "more toxic"

[[record]]
molecule = "C[C@]12CC[C@@H]3c4ccc(O)cc4CC[C@H]3[C@@H]1CC[C@@H]2O [E2, 17β-estradiol]"
result = "more toxic"


---

Tested on: hCD34+ hematopoietic progenitors
Assay: In vitro toxicity of natural estrogens for hematopoietic progenitors (hCD34+ culture, FACS subsets)
Format: cell-based, human
Conditions: 100 nM, four days culture
molecules and their reported % MPP
endpoint_label: % MPP

[[record]]
molecule = "C[C@]12CC[C@@H]3c4ccc(O)cc4CC[C@H]3[C@@H]1C[C@@H](O)[C@@H]2O"
endpoint_label = "% MPP"
result = "7.25 ± 0.46%"

[[record]]
molecule = "C[C@]12CC[C@@H]3c4ccc(O)cc4CC[C@H]3[C@@H]1CCC2=O [E1, estrone]"
endpoint_label = "% MPP"
result = "4.37 ± 1.47%"

[[record]]
molecule = "C[C@]12CC[C@@H]3c4ccc(O)cc4CC[C@H]3[C@@H]1CC[C@@H]2O [E2, 17β-estradiol]"
endpoint_label = "% MPP"
result = "3.20 ± 0.76%"

[[record]]
molecule = "C[C@]12CC[C@@H]3c4ccc(O)cc4CC[C@H]3[C@@H]1[C@@H](O)[C@@H](O)[C@@H]2O"
endpoint_label = "% MPP"
result = "4.35 ± 0.56%"


---

System: hCD34+ hematopoietic progenitors
Assay: In vitro toxicity of natural estrogens for hematopoietic progenitors (hCD34+ culture, FACS subsets)
Type: cell-based, human
Conditions: 100 μM, four days culture
endpoint_label: % HSC (%)

[[record]]
molecule = "C[C@]12CC[C@@H]3c4ccc(O)cc4CC[C@H]3[C@@H]1[C@@H](O)[C@@H](O)[C@@H]2O"
endpoint_label = "% HSC"
numeric_value = 3.67

[[record]]
molecule = "C[C@]12CC[C@@H]3c4ccc(O)cc4CC[C@H]3[C@@H]1C[C@@H](O)[C@@H]2O"
endpoint_label = "% HSC"
numeric_value = 4.13

[[record]]
molecule = "C[C@]12CC[C@@H]3c4ccc(O)cc4CC[C@H]3[C@@H]1CC[C@@H]2O [E2, 17β-estradiol]"
endpoint_label = "% HSC"
numeric_value = 4.50

[[record]]
molecule = "C[C@]12CC[C@@H]3c4ccc(O)cc4CC[C@H]3[C@@H]1CCC2=O [E1, estrone]"
endpoint_label = "% HSC"
numeric_value = 0.67


---

molecules and their reported % MPP
System: hCD34+ hematopoietic progenitors
Experiment: In vitro toxicity of natural estrogens for hematopoietic progenitors (hCD34+ culture, FACS subsets)
Type: cell-based, human
Conditions: 100 μM, four days culture
endpoint_label: % MPP (%)

[[record]]
molecule = "C[C@]12CC[C@@H]3c4ccc(O)cc4CC[C@H]3[C@@H]1CCC2=O [E1, estrone]"
numeric_value = 3.86

[[record]]
molecule = "C[C@]12CC[C@@H]3c4ccc(O)cc4CC[C@H]3[C@@H]1[C@@H](O)[C@@H](O)[C@@H]2O"
numeric_value = 3.85

[[record]]
molecule = "C[C@]12CC[C@@H]3c4ccc(O)cc4CC[C@H]3[C@@H]1C[C@@H](O)[C@@H]2O"
numeric_value = 6.44

[[record]]
molecule = "C[C@]12CC[C@@H]3c4ccc(O)cc4CC[C@H]3[C@@H]1CC[C@@H]2O [E2, 17β-estradiol]"
numeric_value = 7.08

